# Tested on: LOX IMVI melanoma
# TEST_NAME: NCI tumour cell line growth inhibition, 48 h
PROPERTY_MEASURED: TGI (µM)
Please state the figure in µM; there is no need to write the unit.

In the examples that follow, each entry is paired with its recorded TGI.
- MOL_SMILES: "CC(=O)C1(c2ccccc2)CCN(Cn2sc3nc(C)cc(C)c3c2=O)CC1"
  ASSAY_SYSTEM: "LOX IMVI melanoma"
  TGI, µM: 57.8
- MOL_SMILES: "O=c1c(O)c(-c2ccc(O)c(O)c2)oc2cc(O)ccc12"
  ASSAY_SYSTEM: "LOX IMVI melanoma"
  TGI, µM: 32.4
- MOL_SMILES: "COc1cc(-c2c[nH]c3ccccc23)nc(-c2c[nH]c3ccccc23)n1"
  ASSAY_SYSTEM: "LOX IMVI melanoma"
  TGI, µM: 16.5
- MOL_SMILES: "CS(=O)(=O)c1ccc(N/N=C/c2c(-c3ccc(S(C)(=O)=O)cc3)[nH]c3ccc(F)cc23)cc1"
  ASSAY_SYSTEM: "LOX IMVI melanoma"
  TGI, µM: 3.64
- MOL_SMILES: "O=C1C=C(Nc2ccccc2)c2ncccc2C1=O"
  ASSAY_SYSTEM: "LOX IMVI melanoma"
  TGI, µM: 0.514

Record summary for Nc1ccccc1NC(=O)c1ccc(CSc2nc(N3CCOCC3)c3cccn3n2)cc1 : reported TGI = 3.22

Record summary for CCCCCCNC(=O)c1cc(NCc2cc(OC)ccc2OC)ccc1O : reported TGI = 32.9

* * *

# Tested on: RPMI-8226 leukemia
# TEST_NAME: NCI tumour cell line growth inhibition, 48 h; in the data active = GI50 below about 0.43 µM; inactive = the rest
The categories you may choose from are active, inactive

Would you please look over these solved cases?
- COMPOUND: "C/C(=C\\c1ccn(-c2ccc(N)c(C(F)(F)F)c2)n1)[C@@H]1C[C@@H]2O[C@]2(C)CCC[C@H](C)[C@H](O)[C@@H](C)C(=O)C(C)(C)[C@@H](O)CC(=O)O1"
  CLASS_LABEL: "active"
- COMPOUND: "COc1ccc(-c2cc(-c3ccc(Nc4nc(Nc5ccc(Cl)cc5)nc(Nc5ccc(Cl)cc5)n4)cc3)no2)cc1"
  CLASS_LABEL: "inactive"
- COMPOUND: "O=c1oc2ccc(Cl)cc2c(=O)n1-c1ccc(Cl)cc1F"
  CLASS_LABEL: "active"
- COMPOUND: "COc1cc2c(c(OC)c1OC)-c1ccc(OC)c(=O)cc1[C@@H](NC(=O)CCl)CC2"
  CLASS_LABEL: "active"

Dear colleague, could you share the recorded outcome for CCC1CCc2nc3sc(C(=O)Nc4ccccc4F)c(N)c3cc2C1 (centres undefined) when you have a moment? inactive

Dear colleague, could you share the recorded outcome for COc1cc2c(c(OC)c1OC)-c1ccc([O-])c(=O)cc1[C@@H](NC(C)=O)CC2.COc1cc2c(c(OC)c1OC)-c1ccc([O-])c(=O)cc1[C@@H](NC(C)=O)CC2.[Cu+2] when you have a moment? inactive

Dear colleague, could you share the recorded outcome for COc1ccc(-c2coc3ncnc(N)c23)cc1 when you have a moment? inactive

Dear colleague, could you share the recorded outcome for CCCCCCCCCCCCCOC(=O)c1c(C)[nH]c(/C=C2\N=C(c3ccc[nH]3)C=C2OC)c1C when you have a moment? active

Dear colleague, could you share the recorded outcome for COc1cc2[nH]c(C(=O)c3cc(OC)c(OC)c(OC)c3)c(N)c2cc1C#CCO when you have a moment? inactive

Dear colleague, could you share the recorded outcome for COC(=O)c1cccc(NC(=O)Nc2ccc3oc(=O)c4ccccc4c3c2)c1 when you have a moment? inactive

* * *

# System: OVCAR-4 ovarian
# TEST_NAME: NCI tumour cell line growth inhibition, 48 h
Listed compounds paired with reported TGI

In the examples that follow, each entry is paired with its recorded TGI.
- COMPOUND: "CCOC(=O)Cn1c(=O)c2nc(SC)sc2n(-c2ccc(C)cc2)c1=S"
  TGI: "35.2 µM"
- COMPOUND: "C#CCCCC(=C)C[C@H](OCc1ccccc1)[C@H]1OC(=O)[C@@H]1C"
  TGI: "> 100 µM"
- COMPOUND: "CC1CC(N)=Nc2ccccc2N1Cc1ccccc1 (stereo unspecified)"
  TGI: "34.5 µM"

Record summary for Cc1nnc(Nc2ccc(Cl)cc2)o1 : reported TGI = > 10 µM

Record summary for CC(=O)OCC1OC(n2c(C)c(N=Nc3ccc(C)cc3)c(C)c(C#N)c2=S)C(OC(C)=O)C(OC(C)=O)C1OC(C)=O (stereo unspecified) : reported TGI = > 100 µM

Record summary for O=C(OCc1ccccc1)N1CCNCCNCC1 : reported TGI = > 100 µM

* * *

# System: CCRF-CEM leukemia
# TEST_NAME: NCI tumour cell line growth inhibition, 48 h
PROPERTY_MEASURED: TGI

In the examples that follow, each entry is paired with its recorded TGI.
- MOLECULE: "Cc1cc(S(=O)(=O)Nc2nc(N)n(-c3cnc4ccccc4n3)n2)c(S)cc1Cl"
  ASSAY_RESULT: "> 100 µM"
- MOLECULE: "Nc1nc(N)c2nc(CNc3ccc(C(=O)CC(CCC(=O)O)C(=O)O)cc3)cnc2n1 (configuration not stated)"
  ASSAY_RESULT: "> 100 µM"
- MOLECULE: "O=C(O)/C(Cl)=C(\\Cl)Nc1cccc(C(F)(F)F)c1"
  ASSAY_RESULT: "> 100 µM"

Please find the next molecule below.
Record summary for O=c1ncc(-c2ccc(C(F)(F)F)cc2)c(NC2CCCCCC2)[nH]1 : reported TGI = 48 µM

* * *

Listed compounds paired with reported TGI
# Test system: MDA-MB-435
# TEST_NAME: NCI tumour cell line growth inhibition, 48 h

- COMPOUND: "NC(=O)/N=C(\\N)NC(=O)c1ccccc1"
  TGI: "> 100 µM"

Record summary for Cc1ccc(SCC(OCn2cnc3c(N)ncnc32)[C@H](C)F)cc1 (some centres undefined) : reported TGI = > 100 µM

Record summary for C=C1C(=O)O[C@@H]2[C@H]1CC[C@H](C)[C@]1(O)CCC(=O)[C@@]21C : reported TGI = > 10 µM

Record summary for CCCCCCCC/C=C\CCCCCCCCNc1ccn(C2OC(COP(=O)(O)OC3CC(n4cc(F)c(=O)[nH]c4=O)OC3CO)C(O)C2O)c(=O)n1 (centres undefined) : reported TGI = > 100 µM

Record summary for N=c1ccn2c(n1)OC1C(OP(=O)(O)O)C(CO)OC12 (centres undefined) : reported TGI = > 100 µM

Record summary for CC1=C(C)SC(=C2Sc3c(n(C)c(=O)[nH]c3=O)S2)S1 : reported TGI = > 100 µM

* * *

# Test system: KM20L2 colon
# TEST_NAME: NCI tumour cell line growth inhibition, 48 h
Listed molecules paired with reported TGI

In the examples that follow, each entry is paired with its recorded TGI.
- MOLECULE: "CC(=O)[O-].CC(=O)[O-].[Mn+2].c1ccc(/C(=N\\Nc2ccccn2)c2ccccn2)cc1"
  ASSAY_SYSTEM: "KM20L2 colon"
  PROPERTY_MEASURED: "TGI"
  ASSAY_RESULT: "15.8 µM"
- MOLECULE: "CCOC(=O)C1Cc2c(ccc(OC)c2OC)C(=O)C1N (stereo not given)"
  ASSAY_SYSTEM: "KM20L2 colon"
  PROPERTY_MEASURED: "TGI"
  ASSAY_RESULT: "> 100 µM"
- MOLECULE: "CN1CCC23c4c5ccc(O)c4OC2C(=NN=C2CCC4(O)C6Cc7ccc(O)c8c7C4(CCN6C)C2O8)CCC3(O)C1C5 (stereo not given)"
  ASSAY_SYSTEM: "KM20L2 colon"
  PROPERTY_MEASURED: "TGI"
  ASSAY_RESULT: "> 100 µM"

Record summary for C[C@]12CCC3c4ccc(OC(=O)c5ccccc5)cc4CC[C@H]3C1CC[C@@H]2OC(=O)C12OC1CCC2=O (stereo not given in full) : reported TGI = 11.9 µM

Record summary for CC(=O)CC(=O)N(CCN(C(=O)CC(C)=O)c1ccccc1)c1ccccc1 : reported TGI = > 100 µM

* * *

Listed molecules paired with reported GI50
# Test system: CAKI-1 renal
# TEST_NAME: NCI tumour cell line growth inhibition, 48 h

In the examples that follow, each entry is paired with its recorded GI50.
- MOL_SMILES: "CC(=O)[CH-]C(=O)c1ccccc1.CC(=O)[CH-]C(=O)c1ccccc1.O=C([O-])C[O-].O=C([O-])C[O-].[Ti+4]"
  ASSAY_SYSTEM: "CAKI-1 renal"
  GI50: "54.5 µM"
- MOL_SMILES: "O=C1C=C(Nc2ccccc2)c2ncccc2C1=O"
  ASSAY_SYSTEM: "CAKI-1 renal"
  GI50: "1.39 µM"
- MOL_SMILES: "COc1ccc(-c2coc3ncnc(N)c23)cc1"
  ASSAY_SYSTEM: "CAKI-1 renal"
  GI50: "> 25 µM"

Record summary for CC[O-].CC[O-].[O-]c1ccccc1C=Nc1ccccc1.[O-]c1ccccc1C=Nc1ccccc1.[Ti+4] : reported GI50 = 85.1 µM
